Cited source for all entries: patent US20250346574A1

molecular target: Helios (Homo sapiens, UniProt Q96SW2+Q9UKS7); assay: Helios Human T Regulatory Cells Degradation Assay; format: cell-based; set-up: fluorescently labelled antibodies against Helios in 1× Permeabilization buffer; endogenous in cells; host or cells: cryopreserved human T regulatory cells; details: cryopreserved human T regulatory cells, incubated 20 hours, Helios-APC antibody staining, flow cytometry; read-out: hTreg Helios DC50
Sequence (Q9UKS7 whole entry): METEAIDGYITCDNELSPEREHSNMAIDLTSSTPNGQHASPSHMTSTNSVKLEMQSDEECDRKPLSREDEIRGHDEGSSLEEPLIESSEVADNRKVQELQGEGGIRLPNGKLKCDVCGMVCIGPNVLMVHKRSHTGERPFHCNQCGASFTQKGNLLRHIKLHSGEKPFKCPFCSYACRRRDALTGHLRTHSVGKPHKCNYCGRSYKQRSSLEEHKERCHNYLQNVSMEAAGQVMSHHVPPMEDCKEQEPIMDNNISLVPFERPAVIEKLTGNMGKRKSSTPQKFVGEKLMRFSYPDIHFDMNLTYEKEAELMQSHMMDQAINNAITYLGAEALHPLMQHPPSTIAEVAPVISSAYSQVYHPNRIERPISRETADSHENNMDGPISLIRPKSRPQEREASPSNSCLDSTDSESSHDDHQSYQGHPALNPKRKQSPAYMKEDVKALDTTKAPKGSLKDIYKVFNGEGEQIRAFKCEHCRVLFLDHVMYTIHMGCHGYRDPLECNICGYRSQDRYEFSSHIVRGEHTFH
Sequence (Q96SW2 whole entry): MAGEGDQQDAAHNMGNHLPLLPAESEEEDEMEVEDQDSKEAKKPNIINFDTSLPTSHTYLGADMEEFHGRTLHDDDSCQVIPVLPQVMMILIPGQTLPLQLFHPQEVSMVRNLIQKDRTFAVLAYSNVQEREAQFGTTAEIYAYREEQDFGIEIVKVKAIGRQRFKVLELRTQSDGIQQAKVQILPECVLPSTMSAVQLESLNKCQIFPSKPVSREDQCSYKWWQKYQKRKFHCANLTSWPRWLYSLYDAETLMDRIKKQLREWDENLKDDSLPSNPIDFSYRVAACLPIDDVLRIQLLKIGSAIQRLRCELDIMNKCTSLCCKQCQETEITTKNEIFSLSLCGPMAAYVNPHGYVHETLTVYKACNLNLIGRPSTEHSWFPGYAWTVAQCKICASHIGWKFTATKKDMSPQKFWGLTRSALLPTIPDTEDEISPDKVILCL
Sequence (Q16531 whole entry partner): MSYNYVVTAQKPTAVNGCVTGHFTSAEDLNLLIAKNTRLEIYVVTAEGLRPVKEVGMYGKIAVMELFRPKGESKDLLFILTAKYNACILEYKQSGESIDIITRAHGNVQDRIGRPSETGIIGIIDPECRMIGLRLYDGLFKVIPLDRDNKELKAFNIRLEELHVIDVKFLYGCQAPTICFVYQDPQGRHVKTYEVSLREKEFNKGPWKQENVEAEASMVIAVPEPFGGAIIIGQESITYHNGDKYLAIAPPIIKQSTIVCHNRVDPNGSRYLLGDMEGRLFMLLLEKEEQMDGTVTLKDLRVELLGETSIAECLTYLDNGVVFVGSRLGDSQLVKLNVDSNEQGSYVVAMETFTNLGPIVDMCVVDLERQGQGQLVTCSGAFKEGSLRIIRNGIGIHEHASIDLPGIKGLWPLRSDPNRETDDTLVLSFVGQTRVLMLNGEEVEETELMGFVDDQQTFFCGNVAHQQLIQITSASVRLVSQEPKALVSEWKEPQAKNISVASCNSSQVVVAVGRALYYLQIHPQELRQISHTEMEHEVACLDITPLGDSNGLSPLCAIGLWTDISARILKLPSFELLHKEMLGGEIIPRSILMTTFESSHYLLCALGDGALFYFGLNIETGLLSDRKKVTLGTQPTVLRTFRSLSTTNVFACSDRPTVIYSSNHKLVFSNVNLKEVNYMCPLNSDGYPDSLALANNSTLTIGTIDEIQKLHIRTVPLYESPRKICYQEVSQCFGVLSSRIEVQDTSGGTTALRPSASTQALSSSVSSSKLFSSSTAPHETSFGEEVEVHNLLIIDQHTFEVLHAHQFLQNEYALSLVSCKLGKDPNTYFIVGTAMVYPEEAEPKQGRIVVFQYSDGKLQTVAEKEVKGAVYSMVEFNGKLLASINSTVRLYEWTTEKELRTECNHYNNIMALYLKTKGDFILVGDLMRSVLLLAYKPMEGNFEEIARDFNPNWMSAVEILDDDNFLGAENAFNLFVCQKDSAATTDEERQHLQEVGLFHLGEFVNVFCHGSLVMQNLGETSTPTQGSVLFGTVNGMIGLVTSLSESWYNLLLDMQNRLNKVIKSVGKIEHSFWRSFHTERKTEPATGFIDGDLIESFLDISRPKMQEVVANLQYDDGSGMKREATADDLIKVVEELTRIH
Entries and their DC50
Measure Name: DC50 (nM)

- Compound: "O=C1CCC(N2Cc3cc(-c4nccc(CN5CCC(O)(c6ccccc6)C5)c4F)ccc3C2=O)C(=O)N1 (stereo not shown)"
  Measure Unit: "nM"
  Relation Qualifier: "≥"
  Reading: 10000
- Compound: "Cc1c2c(nn1C)CCN(Cc1ccnc(-c3ccc4c(c3)CN(C3CCC(=O)NC3=O)C4=O)c1F)C2 (stereo not shown)"
  Measure Unit: "nM"
  Relation Qualifier: "≥"
  Reading: 10000
- Compound: "O=C1CCC(N2Cc3cc(-c4nccc(CN5CCCC(O)(c6ccccc6)C5)c4F)ccc3C2=O)C(=O)N1 (stereo not shown)"
  Measure Unit: "nM"
  Relation Qualifier: "≥"
  Reading: 10000
- Compound: "O=C1CCC(N2Cc3c(ccc(-c4nccc(CN5CCn6c(nnc6C(F)(F)F)C5)c4F)c3F)C2=O)C(=O)N1 (stereo not shown)"
  Measure Unit: "nM"
  Relation Qualifier: "≥"
  Reading: 10000
- Compound: "O=C1CCC(N2Cc3cc(-c4nccc(CN5CCC(O)(C(F)(F)F)CC5)c4F)ccc3C2=O)C(=O)N1 (stereo not shown)"
  Measure Unit: "nM"
  Relation Qualifier: "≥"
  Reading: 10000
- Compound: "O=C1CCC(N2Cc3cc(-c4nccc(CN5CCc6cccc(Cl)c6C5)c4F)ccc3C2=O)C(=O)N1 (stereo not shown)"
  Measure Unit: "nM"
  Relation Qualifier: "≥"
  Reading: 10000
- Compound: "O=C1CCC(N2Cc3c(ccc(-c4nccc(CN5CCC(O)(c6ccccc6)CC5)c4F)c3F)C2=O)C(=O)N1 (stereo not shown)"
  Measure Unit: "nM"
  Relation Qualifier: "≥"
  Reading: 10000
- Compound: "COc1c(CN2CCC(C(C)(C)O)CC2)ccnc1-c1ccc2c(c1)CN(C1CCC(=O)NC1=O)C2=O (stereo not shown)"
  Measure Unit: "nM"
  Relation Qualifier: "="
  Reading: 5.2
- Compound: "CC(C)(O)[C@@H]1CCN(Cc2ccnc(-c3ccc4c(c3F)CN(C3CCC(=O)NC3=O)C4=O)c2F)C1 (stereo partly shown)"
  Measure Unit: "nM"
  Relation Qualifier: "="
  Reading: 31.8
- Compound: "CC(C)(C)OC(=O)NC[C@@H]1CCCN1Cc1ccnc(-c2ccc3c(c2)CN(C2CCC(=O)NC2=O)C3=O)c1 (stereo partly shown)"
  Measure Unit: "nM"
  Relation Qualifier: "="
  Reading: 23.5
- Compound: "CC(C)(O)[C@H]1CCCN1Cc1ccnc(-c2ccc3c(c2)CN(C2CCC(=O)NC2=O)C3=O)c1Cl (stereo partly shown)"
  Measure Unit: "nM"
  Relation Qualifier: "="
  Reading: 6.6
- Compound: "O=C1CCC(N2Cc3cc(-c4nccc(CN5CCC6(CC5)CC(O)C6)c4F)ccc3C2=O)C(=O)N1 (stereo not shown)"
  Measure Unit: "nM"
  Relation Qualifier: "="
  Reading: 29.3
- Compound: "O=C1CCC(N2Cc3cc(-c4nccc(CN5CCC(O)(Cc6ccccc6)CC5)c4F)ccc3C2=O)C(=O)N1 (stereo not shown)"
  Measure Unit: "nM"
  Relation Qualifier: "="
  Reading: 330
- Compound: "COC(=O)N[C@H]1CN(Cc2ccnc(-c3ccc4c(c3)CN(C3CCC(=O)NC3=O)C4=O)c2F)C[C@@H]1O (stereo partly shown)"
  Measure Unit: "nM"
  Relation Qualifier: "≥"
  Reading: 10000
- Compound: "CN(CC1CN(Cc2ccnc(-c3ccc4c(c3)CN([C@H]3CCC(=O)NC3=O)C4=O)c2)C1)C(=O)c1ccccc1"
  Measure Unit: "nM"
  Relation Qualifier: "="
  Reading: 15.9
- Compound: "O=C1CCC(N2Cc3cc(-c4cc(CN5C[C@@H]6C(CO)[C@@H]6C5)ccn4)ccc3C2=O)C(=O)N1 (stereo partly shown)"
  Measure Unit: "nM"
  Relation Qualifier: "="
  Reading: 4.2
- Compound: "CC(C)(C)OC(=O)N1CC2CCCN(Cc3ccnc(-c4ccc5c(c4)CN(C4CCC(=O)NC4=O)C5=O)c3F)C2C1 (stereo not shown)"
  Measure Unit: "nM"
  Relation Qualifier: "≥"
  Reading: 10000
- Compound: "O=C1CCC(N2Cc3cc(-c4nccc(CN5CCC(F)(F)CC5)c4F)ccc3C2=O)C(=O)N1 (stereo not shown)"
  Measure Unit: "nM"
  Relation Qualifier: "≥"
  Reading: 10000
- Compound: "CC(=O)N1CC2(CCN(Cc3ccnc(-c4ccc5c(c4)CN(C4CCC(=O)NC4=O)C5=O)c3F)CC2)C1 (stereo not shown)"
  Measure Unit: "nM"
  Relation Qualifier: "≥"
  Reading: 10000

* * *

target: Helios (Homo sapiens, UniProt Q96SW2+Q9UKS7); test: Helios Human T Regulatory Cells Degradation Assay; assay type: cell-based; set-up: fluorescently labelled antibodies against Helios in 1× Permeabilization buffer; endogenous in cells; host or cells: cryopreserved human T regulatory cells; conditions: cryopreserved human T regulatory cells, incubated 20 hours, Helios-APC antibody staining, flow cytometry; read-out: hTreg Helios DC50
Entries and their DC50
Measure Name: DC50

- Molecule: "O=C1CCC(N2Cc3cc(-c4nccc(CN5CCn6c(nnc6C(F)(F)F)C5)c4F)ccc3C2=O)C(=O)N1 (stereo not drawn)"
  Measure Name: "DC50"
  Reading: "≥ 10 µM"
- Molecule: "O=C1CCC(N2Cc3cc(-c4nccc(CN5CCc6oncc6C5)c4F)ccc3C2=O)C(=O)N1 (stereo not drawn)"
  Measure Name: "DC50"
  Reading: "≥ 10 µM"
- Molecule: "O=C1CCC(N2Cc3cc(-c4nccc(CN5Cc6ccc(Cl)cc6C5)c4F)ccc3C2=O)C(=O)N1 (stereo not drawn)"
  Measure Name: "DC50"
  Reading: "≥ 10 µM"
